Below, each entry is listed with its recorded growth.
Test system: COLO 205 colon
procedure.summary: NCI-60 one-dose screen, 48 h (100 = growth as untreated, 0 = no growth, -100 = all killed)
cond: 10 µM unless noted
This is part of a sample that, as a whole, favours compounds with a hit. Of some 83,000 tested, about 20% had one in any assay. Activity calls are given as the source filed them. Rule for the calls: active = growth percent below 10; inactive = the rest.
measure: growth

INSERT INTO results (compound_structure, test_result) VALUES
  ('COc1ccccc1C(C)=O', '105% (inactive)'),
  ('CCc1c(CC(=O)O)c2cc(C)ccc2n1Cc1ccc(Cl)cc1', '123% (inactive)'),
  ('CCOC(=O)c1c(C)oc(C)c(C(=O)OCC)c1=O', '117% (inactive)');

----------
Test system: ACHN renal
procedure.summary: NCI-60 one-dose screen, 48 h
cond: 10 µM unless noted
Compounds without any hit were thinned out: in the full panel of roughly 83,000, 20% have a hit. Calls of active or inactive are those of the source. Rule for the calls: active = growth percent below 10; inactive = the rest.
Outcomes: active, inactive

INSERT INTO assay_data (compound, class_label) VALUES
  ('Cc1ccc(-c2noc(CC(=O)c3ccc([N+](=O)[O-])cc3)n2)cc1', 'inactive'),
  ('Cc1ccc(-c2noc(C)n2)cc1', 'inactive'),
  ('CC(/C=N/N1C(=O)c2ccccc2C1=O)c1ccccc1 (configuration not stated)', 'inactive'),
  ('N#CCCOc1ccccc1', 'inactive'),
  ('O=C1c2ccccc2C(=O)N1/N=C/c1ccc2c(c1)OCO2', 'inactive'),
  ('Oc1ccccc1C=NCC1CCC(CN=Cc2ccccc2O)CC1 (configuration not stated)', 'active'),
  ('Cc1ccc(S(=O)(=O)NCN2C(=O)c3ccccc3C2=O)cc1', 'inactive'),
  ('CC(C)C(=O)Nc1ccc([N+](=O)[O-])c(C(F)(F)F)c1', 'inactive'),
  ('Clc1nc(Oc2ccccc2)nc(-c2cn(-c3ccccc3)c3ccccc23)n1', 'inactive'),
  ('CC12CCC(CC1)C(C)(C)O2', 'inactive'),
  ('CCN(CC)C(=O)c1cccnc1', 'inactive'),
  ('Nc1ccc2[nH]c(-c3ccccc3)cc(=O)c2c1', 'inactive');

----------
Test system: HOP-62 NSCLC
procedure.summary: NCI-60 one-dose screen, 48 h (100 = growth as untreated, 0 = no growth, -100 = all killed)
cond: 10 µM unless noted
The panel holds about 83,000 compounds, 20% with a hit somewhere; the sample as a whole holds those more often.
measure: growth (%)

INSERT INTO results (molecule, measure, test_result) VALUES
  ('OCc1ccccn1', 'growth', 115),
  ('NC(=O)c1ccccc1OCC(O)CO (stereo unspecified)', 'growth', 101),
  ('Nc1ccc2[nH]c(-c3ccccc3)cc(=O)c2c1', 'growth', 96.8),
  ('COc1ccc(NC(=S)Nc2ccccn2)cc1', 'growth', 97.9),
  ('CCOC(=O)C(CNc1ccccc1)C(=O)OCC', 'growth', 90.1),
  ('CC(C)Cc1ccc(C(C)C(=O)NCc2ccc(Cn3c(=O)sn(CCCI)c3=O)cc2)cc1 (stereo unspecified)', 'growth', -56.2),
  ('O=C=NC(c1ccccc1)(c1ccccc1)c1ccccc1', 'growth', 143),
  ('COc1cc(C(=O)N/N=C/c2ccc(N(C)C)cc2)cc(OC)c1OC', 'growth', 49),
  ('CC(/C=N/N1C(=O)c2ccccc2C1=O)c1ccccc1 (stereo unspecified)', 'growth', 112),
  ('N=C1N=C(N)CS1', 'growth', 107),
  ('Nc1n[nH]c(=S)n1-c1ccc(Cl)cc1', 'growth', 94.5),
  ('CC1=C[C@H]2c3c(c(O)c(O)c4oc5cc(O)cc(O)c5c(=O)c34)[C@H](c3cc(O)c(O)c4oc5cc(O)cc(O)c5c(=O)c34)[C@H]2C(C)(C)C1', 'growth', -16.2),
  ('CCC(=O)C(CC)c1cccc(OC)c1 (stereo unspecified)', 'growth', 122),
  ('CC(O)Cn1cnc2c1c(=O)n(C)c(=O)n2C (stereo unspecified)', 'growth', 102),
  ('NCCSC(C[N+](=O)[O-])c1ccccc1Cl (stereo unspecified)', 'growth', 106),
  ('O=[N+]([O-])c1ccc2nc3c4ccccc4c4ccccc4c3nc2c1', 'growth', 90),
  ('C[N+](C)(C)CN1C(=O)c2ccccc2C1=O', 'growth', 96),
  ('CCOC(=O)c1sc(N)nc1-c1ccccc1', 'growth', 87.9),
  ('O=C(CCc1ccc(O)cc1)N/N=C/c1cc(Br)ccc1O', 'growth', 62.7),
  ('O=C1c2ccccc2C(=O)N1/N=C/c1ccc2c(c1)OCO2', 'growth', 104),
  ('N#CCCOc1ccccc1', 'growth', 95.3),
  ('N#C/C(=C1C=C/C(=N/O)C(Br)=C/1)c1ccccc1', 'growth', 16.3),
  ('CC1=NN(c2ccccc2)C(=O)C1C(=O)c1ccccc1 (stereo unspecified)', 'growth', 111),
  ('O=[N+]([O-])c1ccc(-n2[nH]nnc2=S)cc1', 'growth', 102),
  ('Cc1ccc2nc3c(nc2c1)-c1cccc2cccc-3c12', 'growth', 101),
  ('Cc1ccc(-c2noc(C)n2)cc1', 'growth', 100);

----------
System: RXF 393 renal
procedure.summary: NCI-60 one-dose screen, 48 h (100 = growth as untreated, 0 = no growth, -100 = all killed)
cond: 10 µM unless noted
The panel holds about 83,000 compounds, 20% with a hit somewhere; the sample as a whole holds those more often.
measure: growth (%)

INSERT INTO measurements (compound, test_result) VALUES
  ('N/C(=N\N=C\c1ccc2c(c1)OCO2)N/N=C\c1ccc2c(c1)OCO2', 110),
  ('CC1=C(/C=C/C(C)=C/C=C/C(C)=C/C(=O)Nc2ccc(O)cc2)C(C)(C)CCC1', 60.8),
  ('CC(C)Cc1ccc(C(C)C(=O)NCc2ccc(Cn3c(=O)sn(CCCI)c3=O)cc2)cc1 (stereo unspecified)', -94.8),
  ('O=CC(O)C(O)C(O)CO (stereo unspecified)', 104),
  ('Cc1ccc(-c2noc(CC(=O)c3ccc([N+](=O)[O-])cc3)n2)cc1', 102),
  ('CCN(CC)C(=O)c1cccnc1', 123),
  ('O=C1c2c(O)cc(O)cc2OC(c2ccc(O)c(O)c2)C1O (stereo unspecified)', 124),
  ('CN(C)c1ccc(C(=C2C=CC(=[N+](C)C)C=C2)c2ccccc2Cl)cc1', -84.3),
  ('S=C1SCN(Cc2ccccc2)CN1Cc1ccccc1', 87.1),
  ('CC1(c2ccc3ccccc3c2)CCC(=O)O1 (stereo unspecified)', 104),
  ('N#C/C(=C1C=C/C(=N/O)C(Br)=C/1)c1ccccc1', 17);

----------
Test system: NCI-H522 lung
procedure.summary: NCI-60 one-dose screen, 48 h (100 = growth as untreated, 0 = no growth, -100 = all killed)
cond: 10 µM unless noted
About 83,000 compounds went through this panel and 20% of them were active in at least one assay; those are over-represented in the sample as a whole.
Attribute: growth
measure: growth (%)

INSERT INTO measurements (compound_structure, test_result) VALUES
  ('Clc1nc(Oc2ccccc2)nc(-c2cn(-c3ccccc3)c3ccccc23)n1', 111),
  ('Cc1nnc(NC/C=C/c2ccccc2)s1', 112),
  ('O=C(CCc1ccc(O)cc1)N/N=C/c1cc(Br)ccc1O', 77.5),
  ('O=[N+]([O-])c1ccc2nc3c4ccccc4c4ccccc4c3nc2c1', 67.2),
  ('CCCCCCCCCCCCOc1ccccc1C=O', 91.3),
  ('Cc1cccc(/C=C\C(=O)c2ccc(Cl)cc2)c1', 94.2);

----------
Test system: NCI/ADR-RES ovarian
procedure.summary: NCI-60 one-dose screen, 48 h (100 = growth as untreated, 0 = no growth, -100 = all killed)
cond: 100 µM
Compounds without any hit were thinned out: in the full panel of roughly 83,000, 20% have a hit. Activity calls are given as the source filed them. How the source made its calls: active means growth percent below 10; inactive means the rest.
measure: growth

INSERT INTO assay_data (compound, test_result) VALUES
  ('CC#C[C@]1(O)CC[C@H]2[C@@H]3CCC4=CC(=O)CCC4=C3[C@@H](c3ccc4c(c3)OCO4)C[C@@]21C', '-15.3% (active)'),
  ('COc1ccc(Cl)cc1C(=O)NCCc1ccc(S(=O)(=O)NC(=O)NC2CCCCC2)cc1', '76.6% (inactive)'),
  ('Cc1[nH]c(-c2nc3ccccc3[nH]2)c(C)c1C(=O)NC(C)C1CCCCC1 (stereo not given)', '-79.7% (active)'),
  ('CCc1ccccc1-n1c(N)c(C#N)c(-c2ccc(OC)c(OC)c2)c(C#N)c1=O', '22.1% (inactive)'),
  ('O=C(O)c1sccc1O', '36% (inactive)');

Cited source for all entries: PubChem BioAssay (NCI)
